System: U87MG pLVX-IDH2 R140Q-neo cells
measurement notes: U87MG pLVX-IDH2 R140Q-neo cell based assay, 2-HG in media by LC-MS at 48 hours
protocol conditions: Homo sapiens, U-87 MG
pIC50: −log10 of the molar value.
reported metric: pIC50

>>> result("COC(=O)N1CCC(Nc2nc(Nc3ccnc(C(F)(F)F)c3)nc(-c3cccc(C(F)(F)F)n3)n2)CC1 [Compound 577]")
"> 7.00"
>>> result("CC(C)Nc1nc(Nc2cncc(C#N)c2)nc(-c2cccc(C(F)(F)F)n2)n1 [Compound 401]")
"> 7.00"
>>> result("CC(C)Nc1nc(Nc2cc(F)cc(S(C)(=O)=O)c2)nc(-c2cccc(C(F)(F)F)n2)n1 [Compound 570]")
"> 7.00"
>>> result("CC(C)Nc1nc(Nc2ccccc2)nc(-c2ccccn2)n1 [Compound 214]")
"6.00 to 7.00"
>>> result("Cc1cc(Nc2nc(NC(C)C)nc(-c3cccc(C(F)(F)F)n3)n2)cnn1 [Compound 501]")
"6.00 to 7.00"

Enquiry: Entry CC(C)(C)CNc1nc(Nc2ccnc(C(F)(F)F)c2)nc(-c2cccc(N)n2)n1 [Compound 689] : reported pIC50 = ?
Return: > 7.00

Enquiry: Also, Fc1cncc(Nc2nc(NC3C4COCC43)nc(-c3cccc(C(F)(F)F)n3)n2)c1 (stereo not drawn) [Compound 411] please.
Return: > 7.00

Enquiry: Also, CC(F)(F)c1cccc(-c2nc(NCC3CC3)nc(Nc3cc(F)cc(F)c3)n2)n1 [Compound 584] please.
Return: > 7.00

---

tested system: IDH2 R172K (Homo sapiens, UniProt P48735, R172K)
measurement notes: IDH2 R172K enzymatic assay (NADPH cofactor depletion, diaphorase/resazurin readout)
protocol conditions: read-out: Enz R172K
pIC50: −log10 of the molar value.
reported metric: pIC50

Here are 8 compounds together with their reported answers.
>>> result("CC(C)Nc1nc(Nc2cccc(CO)c2)nc(-c2ccccc2)n1")
"5.00 to 6.00"
>>> result("CC(C)Nc1nc(Nc2ccccn2)nc(-c2ccccc2)n1")
"< 5.00"
>>> result("CC(C)Nc1nc(Nc2cccc(S(=O)(=O)NCC3CC3)c2)nc(-c2cccc(Cl)n2)n1")
"6.00 to 7.00"
>>> result("CC(C)Nc1nc(Nc2ccnc(C(F)(F)F)c2)nc(-c2cccc(C(O)C(F)(F)F)c2)n1 (stereo not drawn)")
"6.00 to 7.00"
>>> result("CC(C)CNc1nc(Nc2ccncc2)nc(-c2ccccc2)n1")
"6.00 to 7.00"
>>> result("c1ccc(Nc2nc(NC3COC3)nc(-c3ccccc3)n2)cc1")
"6.00 to 7.00"
>>> result("CC(C)Nc1nc(Nc2ccccc2)nc(-c2ccc(Cl)cc2)n1")
"5.00 to 6.00"
>>> result("CC(C)Nc1nc(Nc2ccnc(C(C)(F)F)c2)nc(-c2cccc(Cl)n2)n1")
"6.00 to 7.00"

Enquiry: Entry CC(C)Nc1nc(Nc2cc(F)cc(F)c2)nc(-c2ncccc2F)n1 : reported pIC50 = ?
Return: > 7.00

---

tested system: IDH2 R140Q (Homo sapiens, UniProt P48735, R140Q)
Sequence (P48735 40-452 R140Q): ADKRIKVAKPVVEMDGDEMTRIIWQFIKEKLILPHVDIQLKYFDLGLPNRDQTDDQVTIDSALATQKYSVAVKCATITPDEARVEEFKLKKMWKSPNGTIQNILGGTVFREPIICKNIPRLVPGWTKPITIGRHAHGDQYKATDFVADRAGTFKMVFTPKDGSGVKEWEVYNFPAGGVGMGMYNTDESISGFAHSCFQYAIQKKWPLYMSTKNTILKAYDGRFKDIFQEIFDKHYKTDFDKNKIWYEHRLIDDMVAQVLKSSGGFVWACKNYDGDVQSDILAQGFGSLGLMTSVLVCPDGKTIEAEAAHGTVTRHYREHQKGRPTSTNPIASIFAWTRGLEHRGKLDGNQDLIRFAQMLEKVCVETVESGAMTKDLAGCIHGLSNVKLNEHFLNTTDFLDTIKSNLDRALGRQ
measurement notes: IDH2 R140Q enzymatic assay (cofactor depletion, similar format)
Format: biochemical
protocol conditions: read-out: Enz R140Q
reported metric: IC50

Here are 4 compounds together with their reported answers.
>>> result("CC(C)(O)CNc1nc(Nc2ccc(F)nc2)nc(-c2cccc(C(F)(F)F)n2)n1")
"1000 to 10000 nM"
>>> result("CC(C)(O)CNc1nc(Nc2ccccc2)nc(-c2ccccc2)n1")
"< 100 nM"
>>> result("CC(C)Nc1nc(Nc2ccnc(C(C)(C)O)c2)nc(-c2cccc(C(F)(F)F)n2)n1")
"100 to 1000 nM"
>>> result("CC(C)(C)COC(=O)Nc1nc(Nc2ccccc2)nc(-c2ccccc2)n1")
"< 100 nM"

Enquiry: Please state recorded IC50 (tested on IDH2 R140Q (Homo sapiens, UniProt P48735, R140Q)) of Fc1ccc(Nc2nc(NC3CCC3)nc(-c3ccccn3)n2)cn1
Return: 100 to 1000 nM

Enquiry: Also, CC(C)Nc1nc(Nc2cccc(F)c2)nc(-c2cccc(N)n2)n1 please.
Return: 100 to 1000 nM

---

Test system: U87MG pLVX-IDH2 R140Q-neo cells
measurement notes: U87MG pLVX-IDH2 R140Q-neo cell based assay, 2-HG in media by LC-MS at 48 hours
protocol conditions: Homo sapiens, U-87 MG
Protocol: U87MG pLVX-IDH2 R140Q-neo cells are grown in T125 flasks in DMEM containing 10% FBS, 1× penicillin/streptomycin and 500 μg/mL G418. They are harvested by trypsin and seeded into 96 well white bottom plates at a density of 5000 cell/well in 100 μl/well in DMEM with 10% FBS. […] At 48 hours, 100 ul of media is removed from each well and analyzed by LC-MS for 2-HG concentrations. […] The plate is then read for luminescence with an integration time of 500 ms to determine compound effects on growth inhibition.
pIC50: −log10 of the molar value.
# Lookup of reported pIC50 keyed by entry

Here are 5 molecules together with their reported answers.
>>> result("c1ccc(Nc2nc(NCC3CC3)nc(-c3ccccc3)n2)cc1 [Compound 111]")
"> 7.00"
>>> result("CC(C)Nc1nc(Nc2ccnc(C(F)(F)F)c2)nc(-c2cccc(C(O)C(F)(F)F)c2)n1 (centres unmarked) [Compound 652]")
"6.00 to 7.00"
>>> result("Fc1cncc(Nc2nc(NC3COC3)nc(-c3cccc(C(F)(F)F)n3)n2)c1 [Compound 381]")
"> 7.00"
>>> result("CC(O)C(=O)Nc1nc(Nc2ccccc2)nc(-c2ccccc2)n1 (centres unmarked) [Compound 324]")
"5.00 to 6.00"
>>> result("COc1cc(Cl)cc(-c2nc(Nc3ccnc(C(F)(F)F)c3)nc(NC(C)C)n2)c1 [Compound 655]")
"6.00 to 7.00"

Enquiry: Please state recorded pIC50 (tested on U87MG pLVX-IDH2 R140Q-neo cells) of CC(C)(CO)Nc1nc(Nc2ccnc(C(F)(F)F)c2)nc(-c2cccc(C(F)(F)F)n2)n1 [Compound 562]
Return: > 7.00

Enquiry: Also, CC(F)(F)c1cccc(-c2nc(NCC3CC3)nc(Nc3ccnc(C4(C#N)CC4)c3)n2)n1 [Compound 619] please.
Return: > 7.00

---

tested system: IDH2 R140Q (Homo sapiens, UniProt P48735, R140Q)
measurement notes: IDH2 R140Q enzymatic assay (cofactor depletion, similar format)
Assay type: biochemical
protocol conditions: read-out: Enz R140Q
# Lookup of reported IC50 keyed by entry

Here are 2 compounds together with their reported answers.
>>> result("CC(C)Nc1nc(Nc2cccc(CC#N)c2)nc(-c2ccccc2)n1 [Compound 198]")
"< 100 nM"
>>> result("CC[S+]([O-])c1cccc(Nc2nc(NC(C)C)nc(-c3ccccc3)n2)c1 (centres unmarked) [Compound 277]")
"< 100 nM"

Enquiry: Entry CC(C)Nc1nc(Nc2ccccc2)nc(-c2ccncc2)n1 [Compound 156] : reported IC50 = ?
Return: 100 to 1000 nM

Enquiry: Also, CC(C)(C)Nc1nc(Nc2ccnc(C3(C#N)CC3)c2)nc(-c2cccc(C(F)(F)F)n2)n1 [Compound 608] please.
Return: 100 to 1000 nM

Enquiry: Also, Cc1cc(Nc2nc(NC(C)C)nc(-c3cccc(C(F)(F)F)n3)n2)cnn1 [Compound 501] please.
Return: 100 to 1000 nM

Enquiry: Also, CC(C)Nc1nc(Nc2ccnc(C(C)(C)O)c2)nc(-c2cccc(Cl)n2)n1 [Compound 514] please.
Return: 100 to 1000 nM

Enquiry: Also, CC(F)(F)c1cccc(-c2nc(NCC3CC3)nc(Nc3ccnc(C(F)(F)F)c3)n2)n1 [Compound 595] please.
Return: 100 to 1000 nM

Enquiry: Also, CC(C)Nc1nc(Nc2ccnc(C(F)F)c2)nc(-c2cccc(C(F)(F)F)n2)n1 [Compound 551] please.
Return: 100 to 1000 nM
